# Tested on: MDA-MB-231 breast
# method.description: NCI-60 one-dose screen, 48 h (100 = growth as untreated, 0 = no growth, -100 = all killed)
# recorded.conditions: 10 µM unless noted
The panel holds about 83,000 compounds, 20% with a hit somewhere; the sample as a whole holds those more often.
Entries and their growth

{"molecule": "C=C(C)[C@@H]1CC[C@]2(C(=O)O)CC[C@]3(C)[C@H](CC[C@@H]4[C@@]5(C)CCC(NC(=O)c6cccc(OC(C)=O)c6OC(C)=O)C(C)(C)[C@@H]5CC[C@]43C)[C@@H]12 (stereo partly drawn)", "study.target": "MDA-MB-231 breast", "unit.of.measure": "%", "growth": 11.9}
{"molecule": "CCOC(=O)c1ccc(NC(=O)c2nc(-c3cc(OC)c(OC)c(OC)c3)n(-c3ccc(Cl)cc3)n2)cc1", "study.target": "MDA-MB-231 breast", "unit.of.measure": "%", "growth": 69.4}
{"molecule": "O=C1c2ccccc2-c2c1c1c(=O)[nH]c3ccccc3c1n2Cc1ccccc1", "study.target": "MDA-MB-231 breast", "unit.of.measure": "%", "growth": 62}
{"molecule": "CCOc1ccccc1Cn1ccnc1CCc1c(Cl)c(O)cc(O)c1C(=O)OC", "study.target": "MDA-MB-231 breast", "unit.of.measure": "%", "growth": 96.7}
{"molecule": "CC1CCc2c(C(=O)Nc3ncc(Cc4cccc([N+](=O)[O-])c4)s3)csc2C1 (stereo not drawn)", "study.target": "MDA-MB-231 breast", "unit.of.measure": "%", "growth": 23.6}
{"molecule": "O=C1c2c(c3c4ccccc4[nH]c3c3ccc4ccccc4c23)C(=O)N1CCN1CCNCC1", "study.target": "MDA-MB-231 breast", "unit.of.measure": "%", "growth": -66.8}
{"molecule": "C=C1CC[C@@H]2[C@](C)(COC(C)=O)[C@H](OC(C)=O)CC[C@@]2(C)[C@@H]1CC(Nc1ccc(S(=O)(=O)Nc2ncccn2)cc1)C1=CCOC1=O (stereo partly drawn)", "study.target": "MDA-MB-231 breast", "unit.of.measure": "%", "growth": -1.01}
{"molecule": "C=CCn1c(SCC(=O)Nc2ccc(C(=O)/C=C/c3ccc(Cl)cc3)cc2)nnc1-c1ccc(Br)cc1", "study.target": "MDA-MB-231 breast", "unit.of.measure": "%", "growth": 81.2}

----------
# Test system: EKVX NSCLC
# method.description: NCI-60 one-dose screen, 48 h (100 = growth as untreated, 0 = no growth, -100 = all killed)
# recorded.conditions: 10 µM unless noted
The panel holds about 83,000 compounds, 20% with a hit somewhere; the sample as a whole holds those more often.
Mark label 0 for growth values under 70%, and label 1 for everything at or above.

{"molecule": "CC(=O)Oc1ccc(N2C(=O)C(Cl)=C(Nc3cccc(C(F)(F)F)c3)C2=O)cc1", "study.target": "EKVX NSCLC", "cat": "label 1"}
{"molecule": "O=C(c1ccncc1)N1N=C(c2ccc(Cl)cc2)C[C@H]1c1cn(-c2ccccc2)nc1-c1ccccc1", "study.target": "EKVX NSCLC", "cat": "label 1"}
{"molecule": "Cc1ccc(CNc2ccc3nc(CCC4CCCCC4)[nH]c3c2)cc1", "study.target": "EKVX NSCLC", "cat": "label 0"}
{"molecule": "O=C(Nc1ccc(Oc2cccc(F)c2)c(Cl)c1)c1cccnc1", "study.target": "EKVX NSCLC", "cat": "label 0"}
{"molecule": "O=C1NC(=O)C(Cc2ccc(OCc3ccc(-c4ccc(Cl)cc4Cl)cc3)cc2)S1 (stereo not given)", "study.target": "EKVX NSCLC", "cat": "label 0"}
{"molecule": "COC(=O)c1nc(-c2ccccc2)oc1S(=O)(=O)Cc1ccccc1", "study.target": "EKVX NSCLC", "cat": "label 1"}
{"molecule": "CCCCCN1C(=O)/C(=c2\\sc3n(c2=O)C2C(NN=3)N(CC)C(=O)N2CC)c2ccccc21 (stereo not given)", "study.target": "EKVX NSCLC", "cat": "label 0"}
{"molecule": "COc1cc2c(cc1OC)C(C)N(S(N)(=O)=O)CC2 (stereo not given)", "study.target": "EKVX NSCLC", "cat": "label 1"}
{"molecule": "Cc1nc2sc(C(=O)Nc3cccc4ccccc34)c(N)c2cc1C(O)c1ccccc1 (stereo not given)", "study.target": "EKVX NSCLC", "cat": "label 0"}
{"molecule": "CN(C)CCNC(=O)c1cc2c3cc(Cl)ccc3[nH]c2c2ncccc12", "study.target": "EKVX NSCLC", "cat": "label 0"}
{"molecule": "O=C1c2ccccc2-c2c1c1c(=O)[nH]c3ccccc3c1n2Cc1ccccc1", "study.target": "EKVX NSCLC", "cat": "label 0"}
{"molecule": "CCOC(=O)c1c(NC(=O)c2cccc(C(F)(F)F)c2)sc2c(CN(C)C)c(O)ccc12", "study.target": "EKVX NSCLC", "cat": "label 1"}
{"molecule": "CC/C(=C(/c1ccc(Cl)cc1)c1ccc(OCCN(C)C)cc1)c1ccc(Cl)cc1", "study.target": "EKVX NSCLC", "cat": "label 1"}
{"molecule": "C=C(C)[C@@H]1CC[C@]2(CO)CC[C@]3(C)[C@H](CC[C@@H]4[C@@]5(C)CC[C@H](NCO)C(C)(C)[C@@H]5CC[C@]43C)[C@@H]12", "study.target": "EKVX NSCLC", "cat": "label 0"}
{"molecule": "O=[N+]([O-])c1ccc(O)cc1Br", "study.target": "EKVX NSCLC", "cat": "label 1"}
{"molecule": "CCOC(=O)n1ccn(C)c1=S", "study.target": "EKVX NSCLC", "cat": "label 1"}
{"molecule": "O=C(N/N=C/c1ccc(Cl)cc1)c1[nH]c2ccc(Cl)cc2c1-c1ccccc1", "study.target": "EKVX NSCLC", "cat": "label 0"}
{"molecule": "CC(=O)O[C@@H]1C[C@]2(C(C)C)O[C@@]1(C)[C@@H]1CCC(C)=C1[C@@H]2OC(=O)/C=C/c1ccccc1", "study.target": "EKVX NSCLC", "cat": "label 1"}
{"molecule": "N#Cc1nc(-c2ccc(Cl)cc2)oc1S(=O)(=O)N1CCN(c2ccc(F)cc2)CC1", "study.target": "EKVX NSCLC", "cat": "label 1"}
{"molecule": "O=S(=O)(NCCCNc1nccc(-c2c(-c3ccc(F)c(O)c3)nc3occn23)n1)c1ccc(Cl)cc1", "study.target": "EKVX NSCLC", "cat": "label 0"}

----------
# System: SF-539 CNS
# method.description: NCI-60 one-dose screen, 48 h (100 = growth as untreated, 0 = no growth, -100 = all killed)
# recorded.conditions: 10 µM unless noted
# Protocol: Cells are grown in 96 well plates and exposed to the test compound for 48 hours. Compounds are tested at a single concentration, which is 10^-5 M for most compounds. The reported endpoint is percent growth (GI% or GIPRCNT), where numbers from 0 - 100% represent growth inhibition, and numbers from -100% - 0 represent cell death. For example, a value of 40 represents 60% growth inhibition. A value of 0 means no net growth occurred over the course of the experiment. […]
This is part of a sample that, as a whole, favours compounds with a hit. Of some 83,000 tested, about 20% had one in any assay.

{"molecule": "CC(=O)O[C@H]1CC2CCC3C(CC[C@@]4(C)C3C[C@H]([N+]3(C)CCCCC3)[C@@H]4OC(C)=O)[C@@]2(C)C[C@@H]1N1CCCCC1 (stereo not given in full)", "growth (%)": 110}
{"molecule": "Nc1nc2ccccc2c2c(=O)c3cccc(Cl)c3sc12", "growth (%)": 88.4}
{"molecule": "CSc1oc(C)nc1[P+](c1ccccc1)(c1ccccc1)c1ccccc1", "growth (%)": 79.6}
{"molecule": "N#Cc1nc(-c2ccc(F)cc2)oc1S(=O)(=O)N1CCOCC1", "growth (%)": 66.7}
{"molecule": "Cc1ccc(/C=C2\\COc3ccc(O)cc3C2=O)cc1", "growth (%)": 98.7}
{"molecule": "CCCNc1nc2ccccc2c2c1S(=O)(=O)c1ccc(Cl)cc1C2=O", "growth (%)": 6.35}
{"molecule": "O=C(CN1C(=O)S/C(=C\\C(Cl)=C\\c2ccccc2)C1=O)NCCc1ccc(O)cc1", "growth (%)": 15.6}
{"molecule": "Cc1[nH]c(=O)[nH]c(=O)c1Br", "growth (%)": 114}
{"molecule": "COC1=CC(c2ccc[nH]2)=N/C1=C\\c1[nH]c(C)c(C(=O)OC(C)C)c1C", "growth (%)": -58.6}
{"molecule": "CS(=O)(=O)Nc1cc(-c2ccc3ncnc(Nc4ccc5c(cnn5Cc5ccc(F)cc5)c4)c3c2)cnc1Cl", "growth (%)": 27.5}
{"molecule": "CCOC(=O)C1=C(c2ccccc2)N=C2SC=C(c3ccc(Cl)cc3)N2C1c1ccc(Br)cc1 (stereo not given)", "growth (%)": 94.9}
{"molecule": "O=C(OC(CO)C(=O)NC12CC3CC(CC(C3)C1)C2)c1ccc(Cl)cc1 (stereo not given)", "growth (%)": 96}
{"molecule": "O=c1c2ccccc2n2cnc3ccc(Cl)c1c32", "growth (%)": 88.4}
{"molecule": "CC(=O)Oc1ccc(N2C(=O)C(Cl)=C(Nc3cccc(C(F)(F)F)c3)C2=O)cc1", "growth (%)": 96.5}
{"molecule": "CCOC(=O)C1=C(c2ccccc2)N=C2SC=C(c3ccc(Cl)cc3)N2C1c1ccc(Cl)cc1 (stereo not given)", "growth (%)": 92.8}
{"molecule": "Cc1ccc(Nn2c(SCC(=O)Nc3nc(-c4ccccc4)cs3)nc(C)c2C)cc1", "growth (%)": 73.7}
{"molecule": "COc1ccc(C(=O)N2c3ccccc3Sc3ccccc32)c(OC)c1", "growth (%)": -18.8}
{"molecule": "CC(=O)N1N=C(c2ccc(Nc3nc(Nc4ccccc4)nc(Nc4ccccc4)n3)cc2)CC1c1cccc([N+](=O)[O-])c1 (stereo not given)", "growth (%)": 89.8}
{"molecule": "Cc1ccc(C(=O)c2ccc(CC(=O)N/N=C/c3ccccc3O)n2C)cc1", "growth (%)": 89.1}
{"molecule": "COc1ccc2c(c1)CC[C@H](O)/C2=C/c1cc(OC)c(OC)c(OC)c1", "growth (%)": -5.68}
